Origin of measurements: patent US10428140B2

Target: T1, human EphB4 (Homo sapiens, UniProt P54760)
T1 construct: a protein of the extracellular region of each human Eph receptor fused with the SEAP protein and the His tag; made in house; host or cells: Expi293F cells
T1 sequence (P54760 16-539 limits assumed): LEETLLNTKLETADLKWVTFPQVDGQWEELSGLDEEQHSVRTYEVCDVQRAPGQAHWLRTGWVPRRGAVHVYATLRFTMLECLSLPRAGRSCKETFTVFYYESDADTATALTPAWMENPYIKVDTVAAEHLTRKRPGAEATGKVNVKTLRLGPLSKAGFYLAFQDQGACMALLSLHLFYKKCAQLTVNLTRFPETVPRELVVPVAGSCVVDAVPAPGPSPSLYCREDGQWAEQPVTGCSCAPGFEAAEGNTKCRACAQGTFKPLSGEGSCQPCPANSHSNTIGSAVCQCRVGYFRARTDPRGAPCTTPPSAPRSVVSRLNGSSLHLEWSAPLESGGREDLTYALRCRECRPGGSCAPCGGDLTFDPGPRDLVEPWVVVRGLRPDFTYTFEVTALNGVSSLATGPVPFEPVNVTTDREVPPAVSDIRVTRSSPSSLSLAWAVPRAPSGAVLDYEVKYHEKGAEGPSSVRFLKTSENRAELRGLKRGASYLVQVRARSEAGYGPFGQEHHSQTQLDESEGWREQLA
Test: Selectivity ELISA of humanized antibodies for human Eph receptor
Format: binding
Details: coated protein 1 nM
hEphB4-SEAP-: absorbance at 450 nm, percentage with respect to hEphA4-SEAP-His as 100% values, listed per item
readoutType: hEphB4-SEAP-: absorbance at 450 nm, percentage with respect to hEphA4-SEAP-His as 100%

# molecule, result
records = [
    ("141 (antibody, V domains shown, synthetic humanized antibody heavy chain variable region sequence; synthetic humanized antibody light chain variable region sequence) VH: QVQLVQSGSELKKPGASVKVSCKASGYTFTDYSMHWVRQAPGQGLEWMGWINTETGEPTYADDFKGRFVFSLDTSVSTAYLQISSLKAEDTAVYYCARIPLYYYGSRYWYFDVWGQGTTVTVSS VL: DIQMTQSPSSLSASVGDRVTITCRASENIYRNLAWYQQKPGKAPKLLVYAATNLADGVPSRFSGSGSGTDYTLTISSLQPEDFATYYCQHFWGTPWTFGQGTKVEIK", "5.4%"),
    ("92 (antibody, V domains shown, constant regions without entry; synthetic humanized antibody light chain variable region sequence; synthetic humanized antibody heavy chain variable region sequence) VL: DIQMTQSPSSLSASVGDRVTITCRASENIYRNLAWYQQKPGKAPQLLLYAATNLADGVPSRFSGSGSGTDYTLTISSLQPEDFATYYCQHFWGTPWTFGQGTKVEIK VH: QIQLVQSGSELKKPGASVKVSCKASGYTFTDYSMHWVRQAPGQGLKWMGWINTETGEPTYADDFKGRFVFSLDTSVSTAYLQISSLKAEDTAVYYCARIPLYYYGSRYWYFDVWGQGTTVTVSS", "6.6%"),
]
